Source listed as paper PMC11210309.

experiment: Apical-to-basolateral permeability; conditions: human, Caco-2
Exercise: state measured Papp A→B at 2 h for each of the molecules provided.
Please reply with the bare figure in ×10⁻⁶ cm/s and do not write the unit itself.

[Q] Endpoint output: Papp A→B at 2 h of CNC(=C[N+](=O)[O-])NCCSCc1ccc(CN(C)C)o1 [ranitidine] . Value?
[A] 1.16

[Q] Now give it for CC(C)NCC(O)COc1cccc2ccccc12 (centres unmarked) [propranolol] too.
[A] 29.1

[Q] Please answer likewise for COCCc1ccc(OCC(O)CNC(C)C)cc1 (centres unmarked) [metoprolol]
[A] 35.5

[Q] How about O=C(O)Cc1ccccc1Nc1c(Cl)cccc1Cl [diclofenac] ?
[A] 36.4

----------
experiment: Apical-to-basolateral permeability; settings: human
Record condition met whenever Papp A→B at 2 h is at 10 ×10⁻⁶ cm/s or higher; record condition not met when lower.

[Q] Tell me whether Papp A→B at 2 h is at least 10 ×10⁻⁶ cm/s here: COCCc1ccc(OCC(O)CNC(C)C)cc1 (centres unmarked) [metoprolol]
[A] condition met

[Q] Next entry: CC[C@H]1OC(=O)[C@H](C)[C@@H](O[C@H]2C[C@@](C)(OC)[C@@H](O)[C@H](C)O2)[C@H](C)[C@@H](O[C@@H]2O[C@H](C)C[C@H](N(C)C)[C@H]2O)[C@](C)(O)C[C@@H](C)C(=O)[C@H](C)[C@@H](O)[C@]1(C)O [erythromycin]
[A] condition not met

[Q] Can you check O=C(O)Cc1ccccc1Nc1c(Cl)cccc1Cl [diclofenac] next?
[A] condition met

[Q] Entry to check: CC(C)NCC(O)COc1cccc2ccccc12 (centres unmarked) [propranolol]
[A] condition met

[Q] Another compound: CNC(=C[N+](=O)[O-])NCCSCc1ccc(CN(C)C)o1 [ranitidine]
[A] condition met
